Tested on: MALME-3M melanoma
Assay Procedure: NCI tumour cell line growth inhibition, 48 h
Each record here notes measured GI50.
Quantity: GI50

                                   compound          val
0  CC1(C)N=C(N)N=C(N)N1c1ccc(OCc2ccc(S(=O)(=O)F)c(Cl)c2)c(Cl)c1      1970 nM
1  C=C(C)C1CCC2(C(=O)O)CCC3(C)C(CCC4C5(C)CCC(OC(=O)NCc6ccccc6)C(C)(C)C5CCC43C)C12 (stereo not drawn)      5500 nM
2  C=C1C(=O)O[C@H]2[C@H]1CC/C(COC(=O)c1cc3ccccc3s1)=C\CC[C@@]1(C)O[C@@H]21      1820 nM
3  COc1cc2c3c(n(CCNCCCNCCn4c5c(c6cc(OC)c(OC)cc6c4=O)C(=O)c4ccccc4-5)c(=O)c2cc1OC)-c1ccccc1C3=O       884 nM
4  COc1cc2c3c(n(CCCCOC(=O)C(Cl)(Cl)Cl)c(=O)c2cc1OC)-c1cc2c(cc1C3=O)OCO2  > 100000 nM
5  COc1ccc(-n2cc(-c3cc(OC)c(OC)c(OC)c3)[nH]c2=O)cc1Cl  > 100000 nM
6  CCN(CC)CCCC(C)Nc1cnc(C(=O)Nc2cccc3ccc(OC)nc23)cn1 (stereo not drawn)      1750 nM
7     O=C1/C(=C/c2ccc(O)cc2)CSc2ccc(Cl)cc21     16600 nM

----------
Tested on: OVCAR-8 ovarian
Assay Procedure: NCI tumour cell line growth inhibition, 48 h; in the data active means GI50 below about 0.43 µM; inactive means the rest
Classes used: active, inactive

Molecule	System Name	Category
N.N.O=C([O-])P(=O)([O-])[O-].[Na+].[Pt+4]	OVCAR-8 ovarian	inactive
C/C(=N\Nc1ccc(Cl)cn1)c1ccccn1	OVCAR-8 ovarian	active
CC(=O)O.[Au].c1ccc([PH+](c2ccccc2)c2ccccc2)cc1	OVCAR-8 ovarian	inactive
Cc1ccc(C(=O)Nc2ccc(CN3CCN(C)CC3)c(C(F)(F)F)c2)cc1C#Cc1cnc(N)c2ccccc12	OVCAR-8 ovarian	inactive
Cc1ccc(NC(=O)NCCCOc2ccc(N3C(N)=NC(N)=NC3(C)C)cc2Cl)cc1S(=O)(=O)F	OVCAR-8 ovarian	inactive
Cc1ccc(NC(=O)c2sc3nc(C)c(C(O)c4ccccc4)cc3c2N)cc1 (stereo unspecified)	OVCAR-8 ovarian	inactive
CCOC(=O)c1c(C)nc2c(c1N)/C(=C/c1ccc(OC)cc1)C(=O)N2Cc1ccc(F)cc1	OVCAR-8 ovarian	active
COC(=O)c1c(C)[nH]c(/C=C2\N=C(c3ccc[nH]3)C=C2OC)c1C	OVCAR-8 ovarian	active
COc1ccc(-c2nnc(COc3ccc(NC(=O)Nc4ccc(Cl)c(C(F)(F)F)c4)cc3F)o2)cc1	OVCAR-8 ovarian	inactive
Cc1ccc2c3c(c(=O)[nH]c2c1)C1(C(C#N)=C(N)O3)c2cc(Br)ccc2-c2ccc(Br)cc21	OVCAR-8 ovarian	inactive
C=C1CC[C@@H]2[C@](C)(COC(C)=O)[C@H](OC(C)=O)CC[C@@]2(C)[C@@H]1CC(Nc1ccc(S(=O)(=O)Nc2ncccn2)cc1)C1=CCOC1=O (stereo partly specified)	OVCAR-8 ovarian	inactive

----------
Test system: HL-60(TB) leukemia
Assay Procedure: NCI tumour cell line growth inhibition, 48 h
Would you mind labelling by TGI? At or over 70 µM is 1.0, under is 0.0.

In [3]: df
Out[3]:
                                   compound  category
0  COc1cc(OC)c2c(=O)c(OC)c(-c3ccc4c(c3)OCO4)oc2c1       1.0
1  Cc1ccc2c3c(c(=O)[nH]c2c1)C1(C(C#N)=C(N)O3)c2cc(Br)ccc2-c2ccc(Br)cc21       0.0
2  CC(=NNC(=S)Nc1ccc(C)cc1)c1cccc(C(C)=NNC(=S)Nc2ccc(C)cc2)n1       0.0
3  Cc1nc2ccccc2n1C(=O)c1c(F)c(F)c(F)c(F)c1F       1.0
4  CCN(CC)CC(=O)O[C@]1(CC)C(=O)OCc2c1cc1n(c2=O)Cc2cc3ccccc3nc2-1       0.0
5          CC(=O)OCCOCn1cnc2c(Cl)nc(Cl)nc21       0.0
6  Cc1ccc(NC(=O)NCCCOc2ccc(N3C(N)=NC(N)=NC3(C)C)cc2Cl)cc1S(=O)(=O)F       1.0
7  COC(=O)C(=Cc1cc(OC)c(OC)c(OC)c1-c1cc2c(cc1C(C)=O)OCO2)C(=O)OC       1.0
8  COc1ccc(C2SCC(=O)N2NC(=O)Nc2c(C)nc3ccccn23)cc1 (centres undefined)       1.0

The measurements presented in this section are drawn from PubChem BioAssay (NCI).
